assay: Growth inhibition of human apoptosis-resistant OE21 cells after 72 hrs by MTT assay; type: functional, cell-based; conditions: OE21, 72 h
pIC50: −log10 of the molar value.

- MOLECULE: "CC(C)[C@]1(O)C[C@H]2C[C@H]3[C@H]4[C@](C)(CC[C@@]31C2)[C@@H](Br)CC[C@@]4(C)O"
  pIC50: 4.19
- MOLECULE: "CC(C)[C@@H]1CC[C@H](O)[C@H]2[C@H]3[C@](C)(CC[C@@]21CBr)[C@@H](Br)CC[C@@]3(C)O"
  pIC50: 4.70
- MOLECULE: "CC(C)[C@@H]1CC=C[C@H]2[C@H]3[C@@](C)(C=CC(=O)[C@@]3(C)O)CC[C@]12CBr [SPHAEROCOCCENOL A]"
  pIC50: 5.52
- MOLECULE: "CC(C)[C@@H]1C=C[C@H](O)[C@H]2[C@H]3[C@](C)(CC[C@@]21CBr)[C@@H](Br)CC[C@@]3(C)O [BROMOSPHAERODIOL]"
  pIC50: 4.82
- MOLECULE: "CC(C)[C@@H]1C=C[C@H](OO)[C@H]2[C@@H]3[C@](C)(O)[C@@H](O)C[C@H](Br)[C@@]3(C)CC[C@@]21CBr"
  pIC50: 4.57

----------
test system: PC-3; assay: Growth inhibition of human apoptosis-sensitive PC3 cells after 72 hrs by MTT assay; assay type: functional, cell-based; details: PC-3, 72 h
IC50 strictly under 30 µM means class 1; at 30 µM or over means class 0.

- COMPOUND: "CC(C)[C@]1(O)C[C@H]2C[C@H]3[C@H]4[C@](C)(CC[C@@]31C2)[C@@H](Br)CC[C@@]4(C)O"
  TARGET_OR_SYSTEM: "PC-3"
  CLASS_LABEL: "class 0"
- COMPOUND: "C=C1CC[C@@H]2[C@H]([C@@H]3[C@H](C)CC[C@H]13)C2(C)C"
  TARGET_OR_SYSTEM: "PC-3"
  CLASS_LABEL: "class 0"
- COMPOUND: "CC(C)[C@@H]1CC[C@@H]2[C@@H](O)[C@H]3[C@](C)(CC[C@]21C)[C@@H](Br)CC[C@@]3(C)O [NEODOLASTANE]"
  TARGET_OR_SYSTEM: "PC-3"
  CLASS_LABEL: "class 0"
- COMPOUND: "CC(C)[C@@H]1C=C[C@H](OO)[C@H]2[C@@H]3[C@](C)(O)[C@@H](O)C[C@H](Br)[C@@]3(C)CC[C@@]21CBr"
  TARGET_OR_SYSTEM: "PC-3"
  CLASS_LABEL: "class 1"

----------
List of pIC50 values.
test system: PC-3; test: Growth inhibition of human apoptosis-sensitive PC3 cells after 72 hrs by MTT assay; format: functional, cell-based; settings: PC-3, 72 h
pIC50: −log10 of the molar value.
PROPERTY_MEASURED: pIC50

- MOLECULE: "C=C1CC[C@H]2[C@@H](C(C)C)CC[C@@H]2/C=C/[C@](C)(O)CC[C@H]1OC(C)=O [SPHAEROLLANE I]"
  REPORTED_VALUE: 4.47
- MOLECULE: "CC(C)[C@@H]1CC=C[C@H]2[C@H]3[C@](C)(CC[C@]12CBr)[C@@H](O)CC(=O)[C@@]3(C)O"
  REPORTED_VALUE: 5.09
- MOLECULE: "C=C1CC[C@@]2(C)[C@H](/C=C/CC[C@H]1C(C)C)[C@](C)(O)[C@H](O)C[C@@H]2Br"
  REPORTED_VALUE: 4.32
- MOLECULE: "CC(C)[C@@H]1CC=C[C@H]2[C@@H]3[C@](C)(O)[C@H](O)C[C@H](Br)[C@@]3(C)CC[C@]12CBr"
  REPORTED_VALUE: 4.59
- MOLECULE: "CC(C)[C@@H]1CC=C[C@H]2[C@@H]3[C@](C)(O)[C@@H](O)C[C@H](Br)[C@@]3(C)CC[C@]12CBr"
  REPORTED_VALUE: 4.92
- MOLECULE: "CC(C)[C@@H]1CC=C[C@H]2[C@H]3[C@@](C)(C=CC(=O)[C@@]3(C)O)CC[C@]12CBr [SPHAEROCOCCENOL A]"
  REPORTED_VALUE: 5.43
- MOLECULE: "CC(C)[C@@H]1C=C[C@H](O)[C@H]2[C@H]3[C@](C)(CC[C@@]21CBr)[C@@H](Br)CC[C@@]3(C)O [BROMOSPHAERODIOL]"
  REPORTED_VALUE: 4.59
- MOLECULE: "CC(C)[C@@H]1C[C@@H]2C[C@@]13CC[C@]1(C)[C@@H](Br)CC[C@@](C)(O)[C@H]1[C@@H]3[C@H]2O [BROMOTETRASPHAEROL]"
  REPORTED_VALUE: 4.52
- MOLECULE: "CC(C)[C@@H]1CC[C@H](O)[C@H]2[C@H]3[C@](C)(CC[C@@]21CBr)[C@@H](Br)CC[C@@]3(C)O"
  REPORTED_VALUE: 4.60

----------
test: Growth inhibition of human apoptosis-resistant OE21 cells after 72 hrs by MTT assay; assay type: functional, cell-based; details: OE21, 72 h
pIC50: −log10 of the molar value.

- ITEM_SMILES: "CC(C)[C@@H]1C=C[C@H](OO)[C@H]2[C@@H]3[C@](C)(O)[C@H](O)C[C@H](Br)[C@@]3(C)CC[C@@]21CBr"
  pIC50: 4.60
- ITEM_SMILES: "CC(C)[C@@H]1CC[C@@H]2[C@@H](O)[C@H]3[C@](C)(CC[C@]21C)[C@@H](Br)CC[C@@]3(C)O"
  pIC50: 4.22
- ITEM_SMILES: "CC(=O)[C@H]1[C@@H]2[C@H]3CC[C@@H](C(C)C)[C@]3(C)CC[C@]2(C)[C@@H](Br)C[C@@H]1O"
  pIC50: 4.52

----------
List of IC50 values.
test: Growth inhibition of human apoptosis-resistant OE21 cells after 72 hrs by MTT assay; type: functional, cell-based; conditions: OE21, 72 h

- ITEM_SMILES: "CC(C)[C@@H]1CC=C[C@H]2[C@H]3[C@](C)(CC[C@]12CBr)[C@@H](Br)CC[C@@]3(C)O"
  IC50: "28 µM"
- ITEM_SMILES: "CC(C)[C@@H]1CC=C[C@H]2[C@@H]3[C@](C)(O)[C@H](O)C[C@H](Br)[C@@]3(C)CC[C@]12CBr"
  IC50: "25 µM"
- ITEM_SMILES: "C=C1CC[C@@]2(C)[C@H](/C=C/CC[C@H]1C(C)C)[C@](C)(O)[C@H](O)C[C@@H]2Br"
  IC50: "33 µM"
- ITEM_SMILES: "C=C1CC[C@@H]2[C@H]([C@@H]3[C@H](C)CC[C@H]13)C2(C)C"
  IC50: "83 µM"

----------
assay: Growth inhibition of human apoptosis-resistant OE21 cells after 72 hrs by MTT assay; format: functional, cell-based; conditions: OE21, 72 h
pIC50: −log10 of the molar value.
PROPERTY_MEASURED: pIC50

- COMPOUND: "CC(C)[C@@H]1CC=C[C@H]2[C@@H]3[C@](C)(O)[C@@H](O)C[C@H](Br)[C@@]3(C)CC[C@]12CBr"
  REPORTED_VALUE: 4.72
- COMPOUND: "CC(C)[C@@H]1C[C@@H]2C[C@@]13CC[C@]1(C)[C@@H](Br)CC[C@@](C)(O)[C@H]1[C@@H]3[C@H]2O [BROMOTETRASPHAEROL]"
  REPORTED_VALUE: 4.48
- COMPOUND: "CC(C)[C@@H]1CC=C[C@H]2[C@H]3[C@](C)(CC[C@]12CBr)[C@@H](O)CC(=O)[C@@]3(C)O"
  REPORTED_VALUE: 5.08
- COMPOUND: "C=C1CC[C@H]2[C@@H](C(C)C)CC[C@@H]2/C=C/[C@](C)(O)CC[C@H]1OC(C)=O [SPHAEROLLANE I]"
  REPORTED_VALUE: 4.47

----------
system: PC-3; assay: Growth inhibition of human apoptosis-sensitive PC3 cells after 72 hrs by MTT assay; assay type: functional, cell-based; details: PC-3, 72 h
pIC50: −log10 of the molar value.
List of pIC50 values.
PROPERTY_MEASURED: pIC50

- COMPOUND: "CC(C)[C@@H]1CC=C[C@H]2[C@H]3[C@](C)(CC[C@]12CBr)[C@@H](Br)CC[C@@]3(C)O [BROMOSPHAEROL]"
  REPORTED_VALUE: 4.52
- COMPOUND: "CC(C)[C@@H]1C=C[C@H](OO)[C@H]2[C@@H]3[C@](C)(O)[C@H](O)C[C@H](Br)[C@@]3(C)CC[C@@]21CBr"
  REPORTED_VALUE: 4.52
- COMPOUND: "CC(=O)[C@H]1[C@@H]2[C@H]3CC[C@@H](C(C)C)[C@]3(C)CC[C@]2(C)[C@@H](Br)C[C@@H]1O [CORONONE]"
  REPORTED_VALUE: 4.52
